Target: T1, recombinant human G-CSF (Genscript) (human, UniProt P09919-2 31-204, limits assumed)
T1 construct: also called hG-CSF; granulocyte colony stimulating factor
T1 sequence (looked up): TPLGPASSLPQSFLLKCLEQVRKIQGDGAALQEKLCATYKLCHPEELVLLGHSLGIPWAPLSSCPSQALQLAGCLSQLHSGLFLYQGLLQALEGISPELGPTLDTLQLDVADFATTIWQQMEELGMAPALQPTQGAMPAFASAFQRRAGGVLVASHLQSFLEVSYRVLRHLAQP
Assay: SPR (Antigen binding (SPR)); antibody captured on an anti-Fc surface, antigen flowed over
rule met if Kd is below 0.1 nM. rule not met if not; exact matches included in rule not met.

binder: anti-G-CSF antibody clone 1B11 (antibody, V domains shown, Mouse hybridoma monoclonal antibody; also called 1B11.2; 3A3) VH: QVHLQQSGAELARPGASVKMSCKASGYTFPIYTMHWIKQRPGQGLEWIGYINPSIGYANYNQKFRDKATLTADKSSSTAYMQLSSLTSEDSAVYYCARGGYGDSLFAYWGQGTLVTVSA VL: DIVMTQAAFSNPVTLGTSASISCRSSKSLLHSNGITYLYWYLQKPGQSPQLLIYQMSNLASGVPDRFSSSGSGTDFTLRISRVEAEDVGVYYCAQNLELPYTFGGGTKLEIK
label: rule met
//
binder: humanized 1B11 antibody variant 8 (h1L/h2H) (antibody, V domains shown, variable domains only; also called clone 8) VH: QVQLVQSGAEVKKPGASVKVSCKASGYTFPIYTMHWIRQAPGQGLEWIGYINPSIGYANYNQKFRDRATLTADTSTSTAYMELSSLRSEDTAVYYCARGGYGDSLFAYWGQGTLVTVSS VL: DIVMTQSPLSLPVTPGEPASISCRSSKSLLHSNGITYLYWYLQKPGQSPQLLIYQMSNLASGVPDRFSGSGSGTDFTLKISRVEAEDVGVYYCAQNLELPYTFGQGTKLEIK
label: rule not met
//
binder: humanized 1B11 antibody variant 14 (h2L/h3H) (antibody, V domains shown, variable domains only; also called clone 14) VH: QVQLVQSGAEVKKPGASVKVSCKASGYTFPIYTMHWIKQAPGQGLEWIGYINPSIGYANYNQKFRDRATLTADKSTSTAYMELSSLRSEDTAVYYCARGGYGDSLFAYWGQGTLVTVSS VL: DIVMTQSPLSLPVTPGEPASISCRSSKSLLHSNGITYLYWYLQKPGQSPQLLIYQMSNLASGVPDRFSSSGSGTDFTLKISRVEAEDVGVYYCAQNLELPYTFGQGTKLEIK
label: rule not met
//
binder: humanized 1B11 antibody variant 10 (h1L/h4H) (antibody, V domains shown, variable domains only; also called clone 10) VH: QVHLVQSGAEVKKPGASVKVSCKASGYTFPIYTMHWIKQAPGQGLEWIGYINPSIGYANYNQKFRDKATLTADKSTSTAYMELSSLRSEDTAVYYCARGGYGDSLFAYWGQGTLVTVSS VL: DIVMTQSPLSLPVTPGEPASISCRSSKSLLHSNGITYLYWYLQKPGQSPQLLIYQMSNLASGVPDRFSGSGSGTDFTLKISRVEAEDVGVYYCAQNLELPYTFGQGTKLEIK
label: rule not met
//
binder: humanized 1B11 antibody variant 9 (h1L/h3H) (antibody, V domains shown, variable domains only; also called clone 9) VH: QVQLVQSGAEVKKPGASVKVSCKASGYTFPIYTMHWIKQAPGQGLEWIGYINPSIGYANYNQKFRDRATLTADKSTSTAYMELSSLRSEDTAVYYCARGGYGDSLFAYWGQGTLVTVSS VL: DIVMTQSPLSLPVTPGEPASISCRSSKSLLHSNGITYLYWYLQKPGQSPQLLIYQMSNLASGVPDRFSGSGSGTDFTLKISRVEAEDVGVYYCAQNLELPYTFGQGTKLEIK
label: rule not met

Each recorded value in this set is attributed to patent US20230159631A1.
